study system: porcine kidney alanine aminopeptidase (pAPN, EC 3.4.11.2) (Sus scrofa)
Construct: porcine kidney alanine aminopeptidase (pAPN, EC 3.4.11.2); purchased Sigma Aldrich (Poznan, Poland); host or cells: porcine kidney (tissue-derived)
Sequence (P15145 1-963): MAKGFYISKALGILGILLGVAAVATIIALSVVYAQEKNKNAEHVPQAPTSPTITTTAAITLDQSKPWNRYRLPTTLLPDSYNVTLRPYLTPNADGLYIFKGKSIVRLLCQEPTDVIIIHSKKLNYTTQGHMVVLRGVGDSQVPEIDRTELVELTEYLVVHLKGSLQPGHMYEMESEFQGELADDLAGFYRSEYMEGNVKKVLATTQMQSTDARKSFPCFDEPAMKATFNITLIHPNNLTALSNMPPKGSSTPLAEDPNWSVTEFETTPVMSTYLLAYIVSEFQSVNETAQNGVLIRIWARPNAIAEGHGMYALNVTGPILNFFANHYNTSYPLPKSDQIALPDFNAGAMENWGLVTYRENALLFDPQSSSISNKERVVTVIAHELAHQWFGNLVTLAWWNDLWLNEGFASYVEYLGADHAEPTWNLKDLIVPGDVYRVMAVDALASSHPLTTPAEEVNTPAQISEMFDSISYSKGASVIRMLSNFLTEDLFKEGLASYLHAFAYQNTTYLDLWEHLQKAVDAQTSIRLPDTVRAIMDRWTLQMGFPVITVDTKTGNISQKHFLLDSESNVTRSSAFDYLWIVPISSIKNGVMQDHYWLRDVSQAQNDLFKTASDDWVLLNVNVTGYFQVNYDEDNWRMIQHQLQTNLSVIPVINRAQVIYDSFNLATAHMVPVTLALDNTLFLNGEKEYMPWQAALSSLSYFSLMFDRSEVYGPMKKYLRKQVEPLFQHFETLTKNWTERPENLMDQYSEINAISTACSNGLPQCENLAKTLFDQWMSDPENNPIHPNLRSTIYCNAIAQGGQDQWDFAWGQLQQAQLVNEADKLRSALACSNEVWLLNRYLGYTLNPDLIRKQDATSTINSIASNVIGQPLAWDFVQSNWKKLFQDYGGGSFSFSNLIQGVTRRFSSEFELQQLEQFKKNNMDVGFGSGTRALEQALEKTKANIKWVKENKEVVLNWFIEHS
assay notes: Fluorogenic (Ala-AMC) enzyme inhibition assay, pAPN
Format: biochemical
stated conditions: racemic compounds; substrate Ala-AMC 100 µM; 50 mM Tris-HCl pH 7.20; 37 °C
Could you please mark y for values of Ki below 3000 nM and n for values at or above it?

1. NC(Cc1ccc(F)c(Br)c1)P(=O)(O)O (stereo not drawn) [Compound 17c] ... y
2. NC(CCc1cccc(F)c1)P(=O)(O)O (stereo not drawn) [Compound 15c] ... y
3. NC(CCc1ccccc1F)P(=O)(O)O (stereo not drawn) [Compound 15b] ... n
4. NC(CCc1ccc(F)cc1F)P(=O)(O)O (stereo not drawn) [Compound 15e] ... y
5. NC(CCc1ccccc1C(F)(F)F)P(=O)(O)O (stereo not drawn) [Compound 15h] ... n
6. NC(CCc1ccc(C(F)(F)F)cc1)P(=O)(O)O (stereo not drawn) [Compound 15g] ... y
7. NC(Cc1cc(F)ccc1Br)P(=O)(O)O (stereo not drawn) [Compound 17b] ... n
8. NC(CCc1ccc(F)c(F)c1)P(=O)(O)O (stereo not drawn) [Compound 15f] ... y
9. NC(CCc1ccc(F)cc1)P(=O)(O)O (stereo not drawn) [Compound 15d] ... y
